The reported measurements were obtained from BigSolDB 2.1.

- protocolConditions: in toluene, 308.15 K
measureName: solubility (mole fraction)
Give the value as a plain number.

Please supply the value of reported solubility (mole fraction) for the item "O=[N+]([O-])c1cc[nH]n1"
0.00437

###

- protocolConditions: in acetonitrile, 318.15 K
measureName: solubility (mole fraction)
Give the value as a plain number.

Please supply the value of reported solubility (mole fraction) for the item "O=[N+]([O-])c1cc[nH]n1"
0.037

###

- protocolConditions: in THF, 303.15 K
measureName: solubility (mole fraction)
Give the value as a plain number.

Please supply the value of reported solubility (mole fraction) for the item "O=[N+]([O-])c1cc[nH]n1"
0.00553
